Attribution: patent US20250074980A1

# Experimental system: T1, His-tagged CEACAM1 (human, UniProt P13688 35-428)
# T1 construct: 45 kDa SPR analyte; also called CEACAM1-HIS; CEACAM1 analyte
# T1 sequence: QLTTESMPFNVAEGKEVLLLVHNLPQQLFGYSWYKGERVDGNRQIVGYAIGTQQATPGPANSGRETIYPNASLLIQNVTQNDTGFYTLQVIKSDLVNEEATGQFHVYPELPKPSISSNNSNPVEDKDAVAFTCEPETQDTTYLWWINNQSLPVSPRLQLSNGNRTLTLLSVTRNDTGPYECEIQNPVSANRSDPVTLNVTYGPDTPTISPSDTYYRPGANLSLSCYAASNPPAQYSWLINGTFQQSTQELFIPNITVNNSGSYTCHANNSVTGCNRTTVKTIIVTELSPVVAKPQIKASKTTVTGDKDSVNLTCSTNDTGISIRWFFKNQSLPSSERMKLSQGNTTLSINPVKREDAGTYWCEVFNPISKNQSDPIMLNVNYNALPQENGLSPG
# Assay protocol: SPR single-cycle, supernatant IgG captured
Measurement label: koff (s⁻¹)
// note: answer is a bare numeric in s⁻¹

Ask | What value of measured koff is listed for 9B3_9E5/CP08E05 (antibody, IgG4, V domains shown, IgG4 (S241P), kappa) VH: EVQLLESGGGLVQPGGSLRLSCAASGFTFNAHAISWVRQAPGKGLEWVATISSGGTYTYYPDSVKGRFTISRDNSKNTLYLQMNSLKAEDTAMYYCARHGFDYDAAWFAYWGQGTLVTVSS VL: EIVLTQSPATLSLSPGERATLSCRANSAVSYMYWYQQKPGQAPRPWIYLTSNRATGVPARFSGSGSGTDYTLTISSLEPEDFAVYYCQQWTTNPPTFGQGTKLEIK ?
Reply | 0.0078

Ask | Also check 8H3_9E5/Vκ8 S29A (antibody, IgG4, V domains shown, IgG4 (S241P), kappa) VH: EVQLLESGGGLVQPGGSLRLSCAASGFIFSSHGMSWVRQAPGKGLEWVATISSGGTYTYYPDSVKGRFTISRDNSKNTLYLQMNSLKAEDTAMYYCARHGFDYFPYWFAHWGQGTLVTVSS VL: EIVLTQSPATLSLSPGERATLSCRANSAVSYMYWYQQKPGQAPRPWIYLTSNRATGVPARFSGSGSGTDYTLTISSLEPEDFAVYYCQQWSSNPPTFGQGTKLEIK
Reply | 0.024
